Molecular target: SARS-CoV-2 3CL protease (Severe acute respiratory syndrome coronavirus 2, UniProt P0DTD1)
Format: binding
Assay Metric: binding to 3CL protease by mass spectrometry (in words)

Molecule: CCOC(=O)C=CC(CC1CCNC1=O)NC(=O)C(CC(C)C)NC(=O)C(NC(=O)OCc1ccccc1)C(C)OC(C)(C)C (stereo not drawn)
Result Value: one-to-one complex
--
Molecule: O=C(Oc1cncc(Cl)c1)c1cccs1 [MAC-5576, reference compound]
Result Value: one-to-one complex

---

So I've got a bunch of compounds here, and I need their Avg values.
Target: SARS-CoV-2 3CL protease (Severe acute respiratory syndrome coronavirus 2, UniProt P0DTD1)
Type: biochemical
Set-up: unit not given here
Settings: Conc 100 µM; mean response (inhibition) of dose-response curve
Could you keep your reply to the number by itself?

Short answer on SARS-CoV-2 3CL protease (Severe acute respiratory syndrome coronavirus 2, UniProt P0DTD1) for CCN(c1ccc(C(=O)CCl)cc1)S(C)(=O)=O , Avg: 84.1

Form field Avg for item N#Cc1ccnc(S)c1 on SARS-CoV-2 3CL protease (Severe acute respiratory syndrome coronavirus 2, UniProt P0DTD1): 107.8

Sample Cc1cc(C(=O)CCl)c(C)n1-c1ncn[nH]1 , system: SARS-CoV-2 3CL protease (Severe acute respiratory syndrome coronavirus 2, UniProt P0DTD1). Its Avg is 101.2

Value sought: Avg, system SARS-CoV-2 3CL protease (Severe acute respiratory syndrome coronavirus 2, UniProt P0DTD1), item Cc1cc(C(=O)CCl)c(C)n1-c1nccs1 . Result: 101.9

Form field Avg for item O=C(CCl)N1CCc2[nH]c3ccccc3c2C1 on SARS-CoV-2 3CL protease (Severe acute respiratory syndrome coronavirus 2, UniProt P0DTD1): 100.2

Item Cc1ccccc1CN1CCCN(C(=O)CCl)CC1 ; assay system SARS-CoV-2 3CL protease (Severe acute respiratory syndrome coronavirus 2, UniProt P0DTD1); Avg reported as 90.5

Bench note, SARS-CoV-2 3CL protease (Severe acute respiratory syndrome coronavirus 2, UniProt P0DTD1): entry CN(C)C(=O)c1csc(C(=O)CCl)c1 , its Avg = 89

Avg of Cc1ccc(CNC(=O)n2ccnc2)cc1 , assay on SARS-CoV-2 3CL protease (Severe acute respiratory syndrome coronavirus 2, UniProt P0DTD1), is 101.3

Field Avg (SARS-CoV-2 3CL protease (Severe acute respiratory syndrome coronavirus 2, UniProt P0DTD1)), entry O=C(CCl)COc1ccc(Cl)cc1 : 103.3

Here N#Cc1ccc(S)nc1 was tested on SARS-CoV-2 3CL protease (Severe acute respiratory syndrome coronavirus 2, UniProt P0DTD1), and its Avg came to 110.6

The recorded Avg with SARS-CoV-2 3CL protease (Severe acute respiratory syndrome coronavirus 2, UniProt P0DTD1) for CSc1cc(C(=O)CCl)ccc1NC(C)=O was 95.3

Assay SARS-CoV-2 3CL protease (Severe acute respiratory syndrome coronavirus 2, UniProt P0DTD1), sample O=C(CCl)N1CCN(Cc2ccsc2)CC1 , Avg read: 86.4

Kindly note: SARS-CoV-2 3CL protease (Severe acute respiratory syndrome coronavirus 2, UniProt P0DTD1), O=C(CCl)c1ccc(F)c(C(=O)CCl)c1 , Avg value reported: 62.9

// Avg (SARS-CoV-2 3CL protease (Severe acute respiratory syndrome coronavirus 2, UniProt P0DTD1)) for C=CS(=O)(=O)c1nc2ccccc2s1 = 104

Recorded Avg for Cc1cnc(=S)[nH]c1 on SARS-CoV-2 3CL protease (Severe acute respiratory syndrome coronavirus 2, UniProt P0DTD1) was 109.4

Observed Avg on SARS-CoV-2 3CL protease (Severe acute respiratory syndrome coronavirus 2, UniProt P0DTD1), entry CC1C(=O)Nc2ccc(C(=O)CCl)cc21 (stereo not drawn) , equals 84.9

Entry CN(c1ccc(C(=O)CCl)cc1)S(C)(=O)=O , tested on SARS-CoV-2 3CL protease (Severe acute respiratory syndrome coronavirus 2, UniProt P0DTD1), has a reported Avg of 93.6

The measured Avg that NC(=O)c1csc(C(=O)CCl)c1 showed for SARS-CoV-2 3CL protease (Severe acute respiratory syndrome coronavirus 2, UniProt P0DTD1) is 80.1
